Target: Sf RyR_I4734M/G4891E (Spodoptera frugiperda, UniProt A0A4P8L6R5, G4891E/I4734M)
Test: cell-based
reportedEndpoint: pEC50
Please treat pEC50 as minus the base-10 logarithm of the molar concentration.

Recorded pEC50 (molecule CNC(=O)c1cc(Cl)cc(C)c1NC(=O)c1cc(Br)nn1-c1ncccc1Cl [CHL, chlorantraniliprole] ): 5.04

----------
Target: Sf RyR (Spodoptera frugiperda)
Assay: time-lapse [Ca2+]ER fluorescence assay, HEK293 cells
Type: cell-based
reportedEndpoint: pEC50
// pEC50 is dimensionless: -log10 of concentration (M)

Given the molecule CNC(=O)c1cc(C#N)cc(C)c1NC(=O)c1cc(Cn2nnc(C(F)(F)F)n2)nn1-c1ncccc1Cl and test system Sf RyR (Spodoptera frugiperda), the measured pEC50 is 6.76

----------
pEC50: recorded values
Molecular target: rRyR1 (Oryctolagus cuniculus)
Experiment: time-lapse [Ca2+]ER fluorescence assay, HEK293 cells
Type: cell-based, rabbit
Friendly reminder that pEC50 comes from taking -log10 of the concentration in mol/L.

[
  {
    "molecule": "CNC(=O)c1cc(Cl)cc(C)c1NC(=O)c1cc(Br)nn1-c1ncccc1Cl [CHL, chlorantraniliprole]",
    "systemUnderTest": "rRyR1 (Oryctolagus cuniculus)",
    "pEC50": 5.31
  }
]

For the next question, use this molecule.
Field pEC50 (entry Cc1cc(C(F)(C(F)(F)F)C(F)(F)F)ccc1NC(=O)c1cccc(I)c1C(=O)NC(C)(C)CS(C)(=O)=O [FLU, flubendiamide] ) reads 5.35

----------
Molecular target: chiRyR-I4657M/G4819E (Oryctolagus cuniculus, UniProt P11716, C4657M/F4564Y/G4819E/L4792S/R4563K)
Assay: biochemical
Conditions: Ca2+-dependent [3H]ryanodine binding, mean ± SD, n=4
reportedEndpoint: IC50 (µM)
I only need the number, in µM, no unit after it.

# IC50 of [Ca+2] = 590

----------
Target: rRyR1 R4563K (Oryctolagus cuniculus, UniProt P11716, R4563K)
Assay: time-lapse [Ca2+]ER fluorescence assay, HEK293 cells
Conditions: n = 3
Below: a set of entries, each annotated with reported EC50.
Please reply with the bare figure in nM and do not write the unit itself.

[
  {
    "compound": "CNC(=O)c1cc(Cl)cc(C)c1NC(=O)c1cc(Br)nn1-c1ncccc1Cl [CHL, chlorantraniliprole]",
    "resultUnits": "nM",
    "EC50": 62.6
  }
]

In the following, a different compound is considered.
Entry under test: Cc1cc(C(F)(C(F)(F)F)C(F)(F)F)ccc1NC(=O)c1cccc(I)c1C(=O)NC(C)(C)CS(C)(=O)=O [FLU, flubendiamide] . Its EC50 was 3900

----------
Target: chiRyR (Oryctolagus cuniculus, UniProt P11716, C4657I/F4564Y/L4792S/R4563K)
Experiment: biochemical
Type: biochemical, rabbit
Details: Ca2+-dependent [3H]ryanodine binding, mean ± SD, n=4; read-out: EC50 values for Ca2+
reportedEndpoint: pEC50
Lab note — pEC50 values are minus log10 of concentrations in M.

Entry [Ca+2] [Ca2+] , pEC50 reported as 5.30

----------
Molecular target: chiRyR (Oryctolagus cuniculus, UniProt P11716, C4657I/F4564Y/L4792S/R4563K)
Experiment: biochemical
Conditions: Ca2+-dependent [3H]ryanodine binding, mean ± SD, n=4
reportedEndpoint: IC50 (µM)
Reply with just the number (in µM).

// sample [Ca+2] [Ca2+] , its IC50 was 670

All figures here come from paper PMC11491487.
